- measurement.parameters: in formamide, 285.15 K
assay.metric: solubility (mole fraction)
Please respond with just the number, no unit label.

Input: solubility (mole fraction) for CO/N=C(\C(=O)N[C@@H]1C(=O)N2C(C(=O)[O-])=C(COC(C)=O)CS[C@H]12)c1csc(N)n1.[Na+] ?
Output: 0.0562

* * *

- measurement.parameters: in DMSO, 297.15 K
assay.metric: solubility (mole fraction)
Respond numerically, and do not add a unit to the figure.

Input: # lookup: solubility (mole fraction) of CO/N=C(\C(=O)N[C@@H]1C(=O)N2C(C(=O)[O-])=C(COC(C)=O)CS[C@H]12)c1csc(N)n1.[Na+]
Output: 0.0751
